B1: SH3BP2 peptide 408-423 (SH3 domain-binding protein 2), 16-mer library wild type / TNKS ANK (TNKS 12 ANK repeats, residues 174-649) (parent)
chain 1: PQLPHLQRSPPDGQSF
chain 2: TGVPAVSGALRELLEACRNGDVSRVKRLVDAANVNAKDMAGRKSSPLHFAAGFGRKDVVEHLLQMGANVHARDDGGLIPLHNACSFGHAEVVSLLLCQGADPNARDNWNYTPLHEAAIKGKIDVCIVLLQHGADPNIRNTDGKSALDLADPSAKAVLTGEYKKDELLEAARSGNEEKLMALLTPLNVNCHASDGRKSTPLHLAAGYNRVRIVQLLLQHGADVHAKDKGGLVPLHNACSYGHYEVTELLLKHGACVNAMDLWQFTPLHEAASKNRVEVCSLLLSHGADPTLVNCHGKSAVDMAPTPELRERLTYEFKGHSLLQAAREADLAKVKKTLALEIINFKQPQSHETALHCAVASLHPKRKQVTELLLRKGANVNEKNKDFMTPLHVAAERAHNDVMEVLHKHGAKMNALDTLGQTALHRAALAGHLQTCRLLLSYGSDPSIISLQGFTAAQMGNEAVQQILSESTPIRTSD

variants of: B1; assay: proteomic peptide phage display deep mutational scan (ProP-PD DMS): M13 P8 16-mer library selected against immobilised GST-tagged bait for four days (rounds), NGS of the eluted pools per day and pseudo-replica; settings: with TNKS ANK (TNKS 12 ANK repeats, residues 174-649); bait immobilised on MaxiSorp plates (10 µg), library pre-cleared on GST, 2 h binding at 4 °C, five washes; one round per day, days 1-4; value from days 2 and 3; keep out of graded; scale: average fractional NGS count over selection days 2 and 3
Measured quantity: screen value

Q. What value of measured screen value is listed for chain 1 G13A ?
A. 0

Q. Next entry: chain 1 P11E
A. 0

Q. Query chain 1 Q2W next
A. 3.04e-05

Q. Same question, chain 1 P4R this time
A. 3.21e-05

Q. Consider next the variant chain 1 L6K in the same way.
A. 8.36e-05

Q. Same lookup for chain 1 P4K , please.
A. 0.000103
